Molecular target: NLRP3 (Homo sapiens, UniProt Q96P20)
Sequence (Q96P20 whole entry): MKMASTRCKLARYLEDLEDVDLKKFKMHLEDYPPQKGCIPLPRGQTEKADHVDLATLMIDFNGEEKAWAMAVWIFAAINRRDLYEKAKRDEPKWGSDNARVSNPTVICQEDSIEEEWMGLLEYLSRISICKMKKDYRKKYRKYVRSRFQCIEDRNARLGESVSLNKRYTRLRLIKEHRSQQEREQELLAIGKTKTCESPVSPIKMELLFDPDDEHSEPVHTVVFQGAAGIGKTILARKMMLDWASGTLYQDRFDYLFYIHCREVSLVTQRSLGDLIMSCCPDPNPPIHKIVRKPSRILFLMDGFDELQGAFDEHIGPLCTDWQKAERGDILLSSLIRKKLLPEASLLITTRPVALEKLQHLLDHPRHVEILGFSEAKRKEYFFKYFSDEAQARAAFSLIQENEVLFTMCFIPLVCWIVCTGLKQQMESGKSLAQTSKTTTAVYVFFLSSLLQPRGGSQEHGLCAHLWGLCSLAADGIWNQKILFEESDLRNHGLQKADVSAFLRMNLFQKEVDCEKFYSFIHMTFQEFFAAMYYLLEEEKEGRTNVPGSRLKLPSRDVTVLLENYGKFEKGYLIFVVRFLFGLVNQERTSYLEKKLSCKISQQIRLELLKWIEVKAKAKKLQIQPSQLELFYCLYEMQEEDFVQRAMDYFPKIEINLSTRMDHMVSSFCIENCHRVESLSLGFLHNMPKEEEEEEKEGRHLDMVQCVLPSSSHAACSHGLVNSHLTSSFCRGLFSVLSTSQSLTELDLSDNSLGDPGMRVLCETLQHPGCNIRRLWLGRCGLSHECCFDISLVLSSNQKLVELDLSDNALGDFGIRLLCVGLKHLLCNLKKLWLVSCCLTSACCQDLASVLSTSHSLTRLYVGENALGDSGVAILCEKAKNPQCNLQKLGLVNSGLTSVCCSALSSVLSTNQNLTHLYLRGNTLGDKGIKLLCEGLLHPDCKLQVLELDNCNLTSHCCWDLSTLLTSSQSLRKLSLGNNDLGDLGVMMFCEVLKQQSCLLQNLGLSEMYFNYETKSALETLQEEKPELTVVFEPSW
Assay: Human whole blood IL-1β release assay (LPS + nigericin, AlphaLisa)
Type: cell-based
Set-up: Plate out 80 μl of whole blood containing 1 μg/ml of LPS; from tissue; host or cells: human whole blood from healthy donors
Conditions: human whole blood, 1 μg/ml LPS, 10 μM nigericin; IL-1β release; read-out: HWB IC50
pIC50: −log10 of the molar value. Where a name gives a salt, the structure may show the parent alone.
quantity: pIC50

Would you please look over these solved cases?
- compound: "CN(C)CCN(CCCc1ccccc1)S(=O)(=O)NC(=O)Nc1c2c(cc3c1CCC3)CCC2 [Example 58, potassium salt]"
  readout.value: "> 5.30"
- compound: "CC(C)N1CC2CN(S(=O)(=O)NC(=O)Nc3c4c(cc5c3CCC5)CCC4)CC21 (stereo not shown) [Example 87, potassium salt]"
  readout.value: "> 5.30"
- compound: "CN1CC2CCC(C1)N2S(=O)(=O)NC(=O)Nc1c2c(cc3c1CCC3)CCC2 [Example 37, potassium salt]"
  readout.value: "> 6.00"

Let us move to another entry and its pIC50.
Give pIC50 for COc1cc(-c2ccc3c(c2NC(=O)NS(=O)(=O)N(C)[C@@H]2CCN(C)C2)CCC3)ccn1 [Example 110, potassium salt] > 6.30

* * *

Examples of compounds with documented pIC50 follow.
Target: NLRP3 (Homo sapiens, UniProt Q96P20)
Assay: Human whole blood IL-1β release assay (LPS + nigericin, AlphaLisa)
Assay type: cell-based
Parameters: Plate out 80 μl of whole blood containing 1 μg/ml of LPS; from tissue; host or cells: human whole blood from healthy donors
Conditions: human whole blood, 1 μg/ml LPS, 10 μM nigericin; IL-1β release; read-out: HWB IC50
Description: For systemic delivery, the ability to inhibit NLRP3 when the compounds are present within the bloodstream is of great importance. For this reason, the NLRP3 inhibitory activity of a number of compounds in human whole blood was investigated in accordance with the following protocol. Human whole blood in Li-heparin tubes was obtained from healthy donors from a volunteer donor panel. • 1. […] IL-1β was measured according to the manufacturer protocol (Perkin Elmer-AlphaLisa IL-1 Kit AL220F-5000) • 8. […]
pIC50: −log10 of the molar value. Structures can show the parent of a compound that is named as a salt.

Would you please look over these solved cases?
- compound: "CN1CCCN(S(=O)(=O)NC(=O)Nc2c3c(cc4c2CCC4)CCC3)CC1 [Example 90, potassium salt]"
  quantity: "pIC50"
  readout.value: "> 6.30"
- compound: "CCN(CCN(C)C)S(=O)(=O)NC(=O)Nc1c2c(cc3c1CCC3)CCC2 [Example 39, potassium salt]"
  quantity: "pIC50"
  readout.value: "> 6.00"
- compound: "O=C(Nc1c2c(cc3c1CCC3)CCC2)NS(=O)(=O)NCCN1CCC1 [Example 35, potassium salt]"
  quantity: "pIC50"
  readout.value: "> 6.00"

Report pIC50 under test system NLRP3 (Homo sapiens, UniProt Q96P20) for CC(C)N(CCN(C)C)S(=O)(=O)NC(=O)Nc1c2c(cc3c1CCC3)CCC2 [Example 83, potassium salt] . > 5.30

Report pIC50 under test system NLRP3 (Homo sapiens, UniProt Q96P20) for CN1CC[C@@H](NS(=O)(=O)NC(=O)Nc2c3c(cc4c2CCC4)CCC3)C1 [Example 89, potassium salt] . > 6.30

Report pIC50 under test system NLRP3 (Homo sapiens, UniProt Q96P20) for CN1C[C@H]2CN(S(=O)(=O)NC(=O)Nc3c4c(cc5c3CCC5)CCC4)C[C@H]21 [Example 92, potassium salt] . > 6.30

Report pIC50 under test system NLRP3 (Homo sapiens, UniProt Q96P20) for CC(C)NCCN(C(C)C)S(=O)(=O)NC(=O)Nc1c2c(cc3c1CCC3)CCC2 [Example 28, potassium salt] . > 6.30

Report pIC50 under test system NLRP3 (Homo sapiens, UniProt Q96P20) for CN(C)[C@H]1C[C@H]2CC[C@@H](C1)N2S(=O)(=O)NC(=O)Nc1c2c(cc3c1CCC3)CCC2 [Example 79] . > 6.30

* * *

Experiment: PK, intravenous administration
Type: in vivo, male Sprague Dawley rats
Conditions: male, Sprague Dawley, plasma, rat, dose per compound as in Table 3
Counter-ions that a name gives are not always drawn.
Examples of compounds with documented half-life follow.
Write the number in h without appending the unit.

Would you please look over these solved cases?
- compound: "COc1cc(-c2ccc3c(c2NC(=O)NS(=O)(=O)N(C)[C@@H]2CCN(C)C2)CCC3)ccn1 [Example 110, potassium salt]"
  endpoint.unit: "h"
  half-life: 3.9
- compound: "CN1CCC(N(C)S(=O)(=O)NC(=O)Nc2c3c(cc4c2CCC4)CCC3)C1 (stereo not drawn) [Example 11, potassium salt]"
  endpoint.unit: "h"
  half-life: 2.7

Give half-life for CN1CCC2CN(S(=O)(=O)NC(=O)Nc3c4c(cc5c3CCC5)CCC4)CC21 (stereo not drawn) [Example 96, potassium salt] 1.14

* * *

Molecular target: NLRP3 (Homo sapiens, UniProt Q96P20)
Test: Human whole blood IL-1β release assay (LPS + nigericin, AlphaLisa)
Assay type: cell-based
Parameters: Plate out 80 μl of whole blood containing 1 μg/ml of LPS; from tissue; host or cells: human whole blood from healthy donors
Conditions: human whole blood, 1 μg/ml LPS, 10 μM nigericin; IL-1β release; read-out: HWB IC50
pIC50: −log10 of the molar value. Counter-ions that a name gives are not always drawn.
quantity: pIC50

Would you please look over these solved cases?
- molecule: "CC(C)N1C2CCC1CN(S(=O)(=O)NC(=O)Nc1c3c(cc4c1CCC4)CCC3)C2 [Example 29, potassium salt]"
  pIC50: "> 6.30"
- molecule: "CN1CC(CN(C)S(=O)(=O)NC(=O)Nc2c3c(cc4c2CCC4)CCC3)C1 [Example 84, potassium salt]"
  pIC50: "> 6.00"
- molecule: "CN1CCCCC1CNS(=O)(=O)NC(=O)Nc1c2c(cc3c1CCC3)CCC2 (stereo not shown) [Example 20, potassium salt]"
  pIC50: "> 6.30"

Let us move to another entry and its pIC50.
Give pIC50 for O=C(Nc1c2c(cc3c1CCC3)CCC2)NS(=O)(=O)N1CCC(N2CCC2)C1 (stereo not shown) [Example 73, potassium salt] > 5.30

* * *

Examples of compounds with documented pIC50 follow.
Target: NLRP3 (Homo sapiens)
Assay: THP-1 cells pyroptosis assay (LPS + nigericin, resazurin read-out)
Type: cell-based
Set-up: Seed THP-1 cells (25,000 cells/well) containing 1.0 μg/ml LPS; host or cells: THP-1 cells
Procedure: THP-1 cells (ATCC #TIB-202) were grown in RPMI containing L-glutamine (Gibco #11835) supplemented with 1 mM sodium pyruvate (Sigma #S8636) and penicillin (100 units/ml)/streptomycin (0.1 mg/ml) (Sigma #P4333) in 10% Fetal Bovine Serum (FBS) (Sigma #F0804). […] The cells were then counted and viability (>90%) checked by Trypan blue (Sigma #T8154). […] The following method step-by-step assay was followed for compound screening. • 1. […] Plates were read in an Envision reader at Ex 560 nm and Em 590 nm • 9. […]
pIC50: −log10 of the molar value. Structures can show the parent of a compound that is named as a salt.

- compound: "O=C(Nc1c2c(cc3c1CCC3)CCC2)NS(=O)(=O)N1CC2CCC(C1)N2C1CC1 [Example 75, potassium salt]"
  pIC50: "> 6.30"

Let us move to another entry and its pIC50.
Give pIC50 for Cc1cc2c(c(NC(=O)NS(=O)(=O)N(C)C)c1-c1ccnc(OC3CCN(C)CC3)c1)CCC2 [Example 113] > 6.30

* * *

Target: NLRP3 (Homo sapiens)
Assay: Human whole blood IL-1β release assay (LPS + nigericin, AlphaLisa)
Type: cell-based
Design: Plate out 80 μl of whole blood containing 1 μg/ml of LPS; from tissue; host or cells: human whole blood from healthy donors
Conditions: human whole blood, 1 μg/ml LPS, 10 μM nigericin; IL-1β release; read-out: HWB IC50
Where a name gives a salt, the structure may show the parent alone.
quantity: IC50

- molecule: "CC(C)N1CCC1CNS(=O)(=O)NC(=O)Nc1c2c(cc3c1CCC3)CCC2 (stereo not shown) [Example 50, potassium salt]"
  IC50: "< 500 nM"
- molecule: "CN1CCCC1CN(C)S(=O)(=O)NC(=O)Nc1c2c(cc3c1CCC3)CCC2 (stereo not shown) [Example 80, potassium salt]"
  IC50: "< 500 nM"
- molecule: "CN1CCC2CN(S(=O)(=O)NC(=O)Nc3c4c(cc5c3CCC5)CCC4)CC21 (stereo not shown) [Example 96, potassium salt]"
  IC50: "< 500 nM"

Let us move to another entry and its IC50.
Give IC50 for CCN1CCC1CNS(=O)(=O)NC(=O)Nc1c2c(cc3c1CCC3)CCC2 (stereo not shown) [Example 47, potassium salt] < 1000 nM
